- METHOD DESCRIPTION: Cytotoxicity against HEK293T cells assessed as inhibition of cell viability at 50 ug/ml after 72 hrs by MTT assay relative to control
- Assay type: cell-based, HEK-293T
- CONDITION SUMMARY: human, read-out: INH
MEASURED METRIC: cytotoxicity at 72 h, 50 ug/ml (%)
Write the number in % without appending the unit.

Consider the worked cases shown below.
[ask] Give cytotoxicity at 72 h, 50 ug/ml for `Nc1ccc(CCNC(=O)c2nc3cc(Cl)ccc3s2)cc1`
[reply] 25.9

[ask] Quickly give me recorded cytotoxicity at 72 h, 50 ug/ml for `Cc1ccccc1CNC(=O)c1nc2ccccc2s1`
[reply] 42.6

[ask] Write down cytotoxicity at 72 h, 50 ug/ml measured for item `COc1ccc(CCNC(=O)c2nc3cc(Cl)ccc3s2)cc1OC`
[reply] 30.9

[ask] Please list cytotoxicity at 72 h, 50 ug/ml recorded for the compound `O=C(NCc1ccc(F)cc1)c1nc2ccccc2s1`
[reply] 50.3

[ask] Read off the recorded cytotoxicity at 72 h, 50 ug/ml for `O=C(NCc1cc(F)ccc1F)c1nc2cc(Cl)ccc2s1`
[reply] 32.2

---
[ask] Please report cytotoxicity at 72 h, 50 ug/ml for the following compound: `COc1ccccc1CNC(=O)c1nc2cc(Cl)ccc2s1`
[reply] 38.9

[ask] Return value of cytotoxicity at 72 h, 50 ug/ml for input `COc1ccc(CNC(=O)c2nc3cc(Cl)ccc3s2)cc1OC` , no commentary.
[reply] 36.1

[ask] Specify measured cytotoxicity at 72 h, 50 ug/ml for `O=C(NCc1ccccc1)c1nc2cc(Cl)ccc2s1` .
[reply] 40.1

[ask] Specify reported cytotoxicity at 72 h, 50 ug/ml for the compound shown: `O=C(NCc1ccc(F)cc1)c1nc2cc(C(F)(F)F)ccc2s1`
[reply] 38.7

[ask] Give a short answer stating reported cytotoxicity at 72 h, 50 ug/ml for `O=C(NCc1ccc2c(c1)OCO2)c1nc2ccccc2s1` .
[reply] 16.1

[ask] Please indicate cytotoxicity at 72 h, 50 ug/ml recorded for `O=C(NCc1ccc(C(F)(F)F)cc1)c1nc2ccccc2s1`
[reply] 36.7

[ask] Quick one: give measured cytotoxicity at 72 h, 50 ug/ml for `COc1ccc(CNC(=O)c2nc3ccccc3s2)cc1OC`
[reply] 19.1
